Measured pEC50 accompanies every entry in the list below.
Molecular target: SIRT1 (Homo sapiens)
Sequence (Q96EB6 1-747): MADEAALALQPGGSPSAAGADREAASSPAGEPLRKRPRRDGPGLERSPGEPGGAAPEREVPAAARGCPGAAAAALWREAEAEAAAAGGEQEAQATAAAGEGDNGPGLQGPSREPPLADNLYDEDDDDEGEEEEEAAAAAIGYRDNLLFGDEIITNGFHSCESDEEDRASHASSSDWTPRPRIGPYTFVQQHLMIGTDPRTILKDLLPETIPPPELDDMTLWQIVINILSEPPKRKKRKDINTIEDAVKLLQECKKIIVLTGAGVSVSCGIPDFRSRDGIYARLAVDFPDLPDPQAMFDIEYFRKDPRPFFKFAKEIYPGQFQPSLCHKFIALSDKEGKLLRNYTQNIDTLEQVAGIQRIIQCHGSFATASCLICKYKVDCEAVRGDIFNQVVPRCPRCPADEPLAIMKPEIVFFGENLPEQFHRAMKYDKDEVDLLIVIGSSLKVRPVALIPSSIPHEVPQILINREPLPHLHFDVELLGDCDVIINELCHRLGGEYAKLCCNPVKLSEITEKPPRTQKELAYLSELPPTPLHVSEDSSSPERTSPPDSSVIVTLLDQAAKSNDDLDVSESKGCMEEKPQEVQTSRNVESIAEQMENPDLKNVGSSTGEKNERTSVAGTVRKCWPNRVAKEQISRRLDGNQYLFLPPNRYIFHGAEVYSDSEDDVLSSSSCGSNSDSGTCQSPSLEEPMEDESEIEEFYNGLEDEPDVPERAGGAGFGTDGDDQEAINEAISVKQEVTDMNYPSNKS
Assay: SIRT1 mass spectrometry (MS) based deacetylation assay
Format: biochemical
Details: SIRT1 activation, mass spectrometry assay; read-out: ED50 MS ASSAY
pEC50: −log10 of the molar value.

* CSc1ccc(C(=O)Nc2ccccc2-c2cn3c(CN4CCNCC4)csc3n2)cc1 | 4.30 to 5.30
* COc1cccc(C(=O)Nc2cccc(-c3nc4cccnc4s3)c2)c1OC | 4.30 to 5.30
* O=C(Cc1ccccc1)Nc1ccccc1-c1cn2c(CN3CCNCC3)csc2n1 | 4.30 to 5.30
* O=c1[nH]c2ccc(S(=O)(=O)Nc3cccc(-c4nc5ccncc5s4)c3)cc2o1 | 4.30 to 5.30
* COc1ccc(C(=O)Nc2cccc(-c3nnc(-c4ccccc4)o3)c2)c(OC)c1 | 3.82 to 4.00
* COc1cc(C(=O)Nc2cc(CN(C)C)cc(-c3nc4ccncc4s3)c2)cc(OC)c1OC | 4.00 to 4.29
* COc1cc(C(=O)Nc2ccccc2-c2nc3ccncc3s2)cc(OC)c1OC | > 5.30
* COc1cc(C(=O)Nc2cccc(-c3nc4ncccc4o3)n2)cc(OC)c1OC | 4.30 to 5.30
* COc1ccc(C(=O)Nc2cccc(-c3nc4ccncc4o3)c2)c(OC)c1OC | 4.30 to 5.30
* COc1ccc(S(=O)(=O)Nc2ccccc2-c2nc3ccccc3[nH]2)cc1OC | < 3.82

Now let's try a different one.
Input: May I ask what pEC50 has been recorded for COc1ccc(-c2cc(C(=O)Nc3ccccc3-c3cn4c(CN5CCNCC5)csc4n3)[nH]n2)cc1 ?
Output: > 5.30
